Entries and their measured IC50 follow.
target.under.test: HCV NS3/4A protease complex, BMS strain (UniProt P27958, C1454S/C1711G, species not given/STRAIN_BMS)
assay.notes: Recombinant HCV NS3/4A protease complex FRET peptide assay (BMS strain)
Type: biochemical, HCV genotype 1a
condition.info: NS3/4A BMS strain; read-out: IC50 range
Method: Recombinant HCV NS3/4A Protease Complex FRET Peptide Assay […] The assay was performed in a 96-well polystyrene black plate from Falcon. […] The assay plate was read immediately using the Cytofluor Series 4000 (Perspective Biosystems). The instrument was set to read an emission of 340 nm and excitation of 490 nm at 25° C. […] The percent inhibition was calculated with the following equation: 100−[(δFinh/δFcon)×100] where δF is the change in fluorescence over the linear range of the curve.

Solved cases (3 shown):
compound | property.measured | result
C=C[C@@H]1C[C@]1(NC(=O)[C@@H]1C[C@@H](Oc2nccc3cc(OCC)ccc23)CN1C(=O)[C@@H](NC(=O)OC(C)(C)C)C(C)(C)C)C(=O)NS(=O)(=O)C1CC1 [Compound 42] | IC50 | < 100 nM
C=C[C@@H]1C[C@]1(NC(=O)[C@@H]1C[C@@H](Oc2cc3c(Cl)nccc3cc2OC)CN1C(=O)[C@@H](NC(=O)OC(C)(C)C)C(C)(C)C)C(=O)NS(=O)(=O)C1CC1 [Compound 262] | IC50 | < 100 nM
C=C[C@@H]1C[C@]1(NC(=O)[C@@H]1C[C@@H](Oc2nccc3cc(OC)ccc23)CN1C(=O)[C@@H](NC(=O)OC(C)(C)C)[C@@H](C)OC(C)(C)C)C(=O)NS(=O)(=O)C1CC1 [Compound 93] | IC50 | 100 to 1000 nM

Could you now look at the following compound, please?
Per the records, this compound ( C=C[C@@H]1C[C@]1(NC(=O)[C@@H]1CC(Oc2nccc3cc(OC)ccc23)CN1C(=O)C([C@@H](C)CC)N(C)C(=O)OC(C)(C)C)C(=O)NS(=O)(=O)C1CC1 (stereo partly shown) [Compound 84] ) has IC50 equal to < 100 nM

###

System: HCV replicon in Huh7 cells
assay.notes: HCV replicon cell-based assay
Design: species or system HCV strain 1B
condition.info: Hepatitis C virus, Huh-7; HCV replicon, Huh7 cells; read-out: EC50 range
Entries and their measured EC50 follow.

compound | target.under.test | result
C=C[C@@H]1C[C@]1(NC(=O)[C@@H]1C[C@@H](Oc2nccc3cc4c(cc23)OC(F)(F)O4)CN1C(=O)[C@@H](NC(=O)OC(C)(C)C)C(C)(C)C)C(=O)NS(=O)(=O)C1CC1 [Compound 288] | HCV replicon in Huh7 cells | 1000 to 10000 nM
C=C[C@@H]1C[C@]1(NC(=O)[C@@H]1C[C@@H](Oc2nccc3cc(OC)ccc23)CN1C(=O)C(NC(=O)N[C@H](C(=O)OC)C(C)C)C(C)(C)C)C(=O)NS(=O)(=O)C1CC1 (stereo partly shown) [Compound 141] | HCV replicon in Huh7 cells | < 100 nM
C=C[C@@H]1C[C@]1(NC(=O)[C@@H]1C[C@@H](Oc2cc(-c3ccccc3)nc(-c3ccc(OC)cc3)c2)CN1C(=O)[C@@H](NC(=O)OC(C)(C)C)C(C)(C)C)C(=O)NS(=O)(=O)C1CC1 [Compound 414] | HCV replicon in Huh7 cells | < 100 nM
C=C[C@@H]1C[C@]1(NC(=O)[C@@H]1C[C@@H](Oc2nccc3cc(Br)ccc23)CN1C(=O)[C@@H](NC(=O)OC(C)(C)C)C(C)(C)C)C(=O)NS(=O)(=O)C1CC1 [Compound 22] | HCV replicon in Huh7 cells | 100 to 1000 nM
C=C[C@@H]1C[C@]1(NC(=O)[C@@H]1C[C@@H](Oc2nccc3cc(OC)ccc23)CN1C(=O)[C@@H](NC(=O)NC(C)(C)CC)[C@H](C)OC)C(=O)NS(=O)(=O)C1CC1 [Compound 102] | HCV replicon in Huh7 cells | < 100 nM

Per the records, this compound ( C=CC1C[C@]1(NC(=O)[C@@H]1C[C@@H](Oc2nc(-c3ccccn3)cc3cc(OC)ccc23)CN1C(=O)[C@@H](NC(=O)OC(C)(C)C)C(C)(C)C)C(=O)NS(=O)(=O)C1CC1 (stereo partly shown) [Compound 320] ) has EC50 equal to < 100 nM

Per the records, this compound ( C=CC1C[C@]1(NC(=O)[C@@H]1C[C@@H](Oc2nnc(-n3cncn3)c3ccccc23)CN1C(=O)[C@@H](NC(=O)OC(C)(C)C)C(C)(C)C)C(=O)NS(=O)(=O)C1CC1 (stereo partly shown) [Compound 198] ) has EC50 equal to 100 to 1000 nM

Per the records, this compound ( C=CC1C[C@]1(NC(=O)[C@@H]1C[C@@H](Oc2nc3ccoc3c3ccccc23)CN1C(=O)[C@@H](NC(=O)OC(C)(C)C)C(C)(C)C)C(=O)NS(=O)(=O)C1CC1 (stereo partly shown) [Compound 220] ) has EC50 equal to < 100 nM

Per the records, this compound ( C=C[C@@H]1C[C@]1(NC(=O)[C@@H]1C[C@@H](Oc2nccc3cc(OC)ccc23)CN1C(=O)[C@@H](NC(=O)OC(C)(C)C)[C@@H](C)OC)C(=O)NS(=O)(=O)C1CC1 [Compound 92] ) has EC50 equal to < 100 nM

Per the records, this compound ( C=CC1C[C@]1(NC(=O)[C@@H]1C[C@@H](COc2cccc(-c3ccoc3)n2)CN1C(=O)[C@@H](NC(=O)OC)C(C)(C)C)C(=O)NS(=O)(=O)C1CC1 (stereo partly shown) [Compound 355] ) has EC50 equal to 10000 to 100000 nM
